assay: Brain and plasma concentrations in mice after intraperitoneal administration (LC-MS-MS), non-compartmental analysis; format: in vivo; conditions: male, Swiss-Webster, mouse, plasma, ip, 10 mg/kg, plasma NCA, 10 mg/kg i.p.; read-out: t1/2 (converted)
quantity: half-life (h)
Hi! Could you send only the number? It should be in h, unit omitted.

Recorded half-life (compound CC(C)[C@@H](CN1CC[C@@](C)(c2cccc(O)c2)[C@@H](C)C1)NC(=O)[C@H]1Cc2ccc(O)cc2CN1 [JDTic] ): 5.13

---

assay: Brain and plasma concentrations in mice after intraperitoneal administration (LC-MS-MS), non-compartmental analysis; format: in vivo; settings: male, Swiss-Webster, mouse, ip; plasma NCA, 10 mg/kg i.p.
Tmax values for the compounds below.
Hi! Could you send only the number? It should be in min, unit omitted.

Recorded Tmax (compound `N=C(N)Nc1ccc2[nH]c3c(c2c1)C[C@@]1(O)[C@H]2Cc4ccc(O)c5c4[C@@]1(CCN2CC1CC1)[C@H]3O5` ): 30

Recorded Tmax (compound `Oc1ccc2c3c1O[C@H]1c4[nH]c5c(c4C[C@@]4(O)[C@@H](C2)N(CC2CC2)CC[C@]314)C[C@@]1(O)[C@H]2Cc3ccc(O)c4c3[C@@]1(CCN2CC1CC1)[C@H]5O4` ): 30

Recorded Tmax (compound `CC(C)[C@@H](CN1CC[C@@](C)(c2cccc(O)c2)[C@@H](C)C1)NC(=O)[C@H]1Cc2ccc(O)cc2CN1` ): 30

---

concentration at 0.5 h values for the molecules below.
assay: Brain and plasma concentrations in mice after intraperitoneal administration (LC-MS-MS), non-compartmental analysis; assay type: in vivo; conditions: male, Swiss-Webster, mouse, plasma, ip, 10 mg/kg, 0.5 h, 10 mg/kg i.p.; read-out: mean (plasma)
Hi! Could you send only the number? It should be in ng/mL, unit omitted.

Solved cases below.
smiles-record: N=C(N)Nc1ccc2[nH]c3c(c2c1)C[C@@]1(O)[C@H]2Cc4ccc(O)c5c4[C@@]1(CCN2CC1CC1)[C@H]3O5
unit-text: ng/mL
concentration at 0.5 h: 3080
--
smiles-record: Oc1ccc2c3c1O[C@H]1c4[nH]c5c(c4C[C@@]4(O)[C@@H](C2)N(CC2CC2)CC[C@]314)C[C@@]1(O)[C@H]2Cc3ccc(O)c4c3[C@@]1(CCN2CC1CC1)[C@H]5O4
unit-text: ng/mL
concentration at 0.5 h: 4020

Recorded concentration at 0.5 h (molecule `CC(C)[C@@H](CN1CC[C@@](C)(c2cccc(O)c2)[C@@H](C)C1)NC(=O)[C@H]1Cc2ccc(O)cc2CN1` ): 245

---

test: Brain and plasma concentrations in mice after intraperitoneal administration (LC-MS-MS), non-compartmental analysis; format: in vivo; settings: male, Swiss-Webster, mouse, brain, ip, 10 mg/kg, brain; 10 mg kg^-1 i.p., non-compartmental analysis; read-out: AUC 0–∞,brain
quantity: AUC(0-inf) (ng·h/mL)
Hi! Could you send only the number? It should be in ng·h/mL, unit omitted.

Recorded AUC(0-inf) (molecule CC(C)[C@@H](CN1CC[C@@](C)(c2cccc(O)c2)[C@@H](C)C1)NC(=O)[C@H]1Cc2ccc(O)cc2CN1 [JDTic] ): 10300

Recorded AUC(0-inf) (molecule Oc1ccc2c3c1O[C@H]1c4[nH]c5c(c4C[C@@]4(O)[C@@H](C2)N(CC2CC2)CC[C@]314)C[C@@]1(O)[C@H]2Cc3ccc(O)c4c3[C@@]1(CCN2CC1CC1)[C@H]5O4 [nor-BNI, norbinaltorphimine] ): 593

---

experiment: Brain and plasma concentrations in mice after intraperitoneal administration (LC-MS-MS), non-compartmental analysis; type: in vivo; conditions: male, Swiss-Webster, mouse, plasma, intraperitoneal, 10 mg/kg, 4 h, 10 mg/kg; read-out: Conc (plasma, NCA input)
concentration at 4 h values for the compounds below.
Hi! Could you send only the number? It should be in ng/mL, unit omitted.

compound: Oc1ccc2c3c1O[C@H]1c4[nH]c5c(c4C[C@@]4(O)[C@@H](C2)N(CC2CC2)CC[C@]314)C[C@@]1(O)[C@H]2Cc3ccc(O)c4c3[C@@]1(CCN2CC1CC1)[C@H]5O4 [nor-BNI, norbinaltorphimine]
unit-text: ng/mL
concentration at 4 h: 148

compound: CC(C)[C@@H](CN1CC[C@@](C)(c2cccc(O)c2)[C@@H](C)C1)NC(=O)[C@H]1Cc2ccc(O)cc2CN1 [JDTic]
unit-text: ng/mL
concentration at 4 h: 46.6

Recorded concentration at 4 h (compound N=C(N)Nc1ccc2[nH]c3c(c2c1)C[C@@]1(O)[C@H]2Cc4ccc(O)c5c4[C@@]1(CCN2CC1CC1)[C@H]3O5 [GNTI, 5’-guanidinonaltrindole] ): 154

---

Assay: Water solubility
Type: physicochemical
Conditions: distilled water, thermodynamic from solid, 25 °C, salt tested
Protocol: Distilled water was added slowly by microsyringe to 10–15 mg of drug in a glass vial, swirling until no solid was visible.
solubility values for the compounds below.

smiles-record: Oc1ccc2c3c1O[C@H]1c4[nH]c5c(c4C[C@@]4(O)[C@@H](C2)N(CC2CC2)CC[C@]314)C[C@@]1(O)[C@H]2Cc3ccc(O)c4c3[C@@]1(CCN2CC1CC1)[C@H]5O4
experimental-value: > 45 mM

Could you now consider this next compound?
Recorded solubility (compound `CC(C)[C@@H](CN1CC[C@@](C)(c2cccc(O)c2)[C@@H](C)C1)NC(=O)[C@H]1Cc2ccc(O)cc2CN1` ): > 45 mM

---

efflux ratio at 120 min, 5 μM values for the compounds below.
biological target: P-gp (human MDR1) (Homo sapiens, UniProt P08183); construct: expressed in transfected cells; host or cells: LLC-PK1 (pig kidney epithelial cells) transfected with human MDR1 at Amgen; assay: LLC-PK1-MDR1 cell permeation and efflux; format: in vitro ADME; settings: pig (LLC-PK1 cells) transfected with human MDR1; LLC-PK1-MDR1 monolayers; read-out: Efflux ratio (B → A/A → B)
Sequence (P08183 whole entry): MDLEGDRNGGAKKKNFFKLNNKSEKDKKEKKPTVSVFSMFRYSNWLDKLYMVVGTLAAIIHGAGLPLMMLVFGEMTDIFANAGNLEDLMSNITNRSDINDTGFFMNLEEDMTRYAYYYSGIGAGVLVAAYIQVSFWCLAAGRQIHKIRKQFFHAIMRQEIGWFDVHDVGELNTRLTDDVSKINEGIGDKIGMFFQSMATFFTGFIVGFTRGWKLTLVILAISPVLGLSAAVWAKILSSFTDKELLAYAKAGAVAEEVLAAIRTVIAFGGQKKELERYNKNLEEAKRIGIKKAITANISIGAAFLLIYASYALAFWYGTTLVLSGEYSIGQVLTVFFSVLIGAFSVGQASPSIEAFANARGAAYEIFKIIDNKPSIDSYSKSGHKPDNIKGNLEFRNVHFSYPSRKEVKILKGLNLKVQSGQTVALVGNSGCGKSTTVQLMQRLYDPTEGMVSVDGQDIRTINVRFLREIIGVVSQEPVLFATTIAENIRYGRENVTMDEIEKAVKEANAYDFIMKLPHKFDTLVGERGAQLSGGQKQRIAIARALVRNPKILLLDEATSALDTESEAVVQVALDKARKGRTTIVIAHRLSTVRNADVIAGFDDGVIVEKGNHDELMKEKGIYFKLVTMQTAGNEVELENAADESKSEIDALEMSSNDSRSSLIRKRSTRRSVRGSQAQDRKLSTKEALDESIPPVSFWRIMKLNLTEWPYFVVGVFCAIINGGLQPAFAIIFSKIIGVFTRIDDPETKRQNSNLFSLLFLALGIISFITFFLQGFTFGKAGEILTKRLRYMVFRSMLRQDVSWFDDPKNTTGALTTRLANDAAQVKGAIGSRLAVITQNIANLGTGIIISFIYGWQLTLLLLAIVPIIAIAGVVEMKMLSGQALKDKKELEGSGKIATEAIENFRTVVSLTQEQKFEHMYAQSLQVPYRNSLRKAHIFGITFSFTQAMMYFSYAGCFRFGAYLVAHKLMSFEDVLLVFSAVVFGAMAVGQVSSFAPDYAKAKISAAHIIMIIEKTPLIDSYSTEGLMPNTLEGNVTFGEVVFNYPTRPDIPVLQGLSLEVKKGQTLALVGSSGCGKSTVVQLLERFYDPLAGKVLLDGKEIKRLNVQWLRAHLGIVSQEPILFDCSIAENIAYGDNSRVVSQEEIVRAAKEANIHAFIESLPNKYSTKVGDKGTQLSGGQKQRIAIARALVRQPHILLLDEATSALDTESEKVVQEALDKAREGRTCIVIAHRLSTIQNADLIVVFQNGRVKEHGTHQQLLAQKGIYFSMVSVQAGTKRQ
The response must contain the number and no unit.

Solved cases below.
compound: CC(C)[C@@H](CN1CC[C@@](C)(c2cccc(O)c2)[C@@H](C)C1)NC(=O)[C@H]1Cc2ccc(O)cc2CN1
efflux ratio at 120 min, 5 μM: 48
//
compound: CN(C)C(=O)C(CCN1CCC(O)(c2ccc(Cl)cc2)CC1)(c1ccccc1)c1ccccc1 [Loperamide, loperamide]
efflux ratio at 120 min, 5 μM: 38

Could you now consider this next compound?
Recorded efflux ratio at 120 min, 5 μM (compound `N=C(N)Nc1ccc2[nH]c3c(c2c1)C[C@@]1(O)[C@H]2Cc4ccc(O)c5c4[C@@]1(CCN2CC1CC1)[C@H]3O5` ): 1.5

---

assay: Brain and plasma concentrations in mice after intraperitoneal administration (LC-MS-MS), non-compartmental analysis; type: in vivo; details: male, Swiss-Webster (Crl:CFW(SW)), mouse, brain, ip, 10 mg/kg, 48 h, 10 mg/kg i.p.; outlier excluded; read-out: mean (brain)
quantity: concentration at 48 h (ng/g)
Hi! Could you send only the number? It should be in ng/g, unit omitted.

Recorded concentration at 48 h (molecule `CC(C)[C@@H](CN1CC[C@@](C)(c2cccc(O)c2)[C@@H](C)C1)NC(=O)[C@H]1Cc2ccc(O)cc2CN1` ): 24.7

---

target: P-gp (human MDR1) (Homo sapiens); construct: expressed in transfected cells; host or cells: LLC-PK1 (pig kidney epithelial cells) transfected with human MDR1 at Amgen; assay: LLC-PK1-MDR1 cell permeation and efflux; assay type: in vitro ADME; conditions: pig (LLC-PK1 cells) transfected with human MDR1, LLC-PK1; apical to basolateral; 5 μM, 0.1% BSA, 120 min, n = 2
quantity: Papp A→B at 120 min, 5 μM (×10⁻⁶ cm/s)
Hi! Could you send only the number? It should be in ×10⁻⁶ cm/s, unit omitted.

molecule: N=C(N)Nc1ccc2[nH]c3c(c2c1)C[C@@]1(O)[C@H]2Cc4ccc(O)c5c4[C@@]1(CCN2CC1CC1)[C@H]3O5
Papp A→B at 120 min, 5 μM, ×10⁻⁶ cm/s: 0.4

molecule: Oc1ccc2c3c1O[C@H]1c4[nH]c5c(c4C[C@@]4(O)[C@@H](C2)N(CC2CC2)CC[C@]314)C[C@@]1(O)[C@H]2Cc3ccc(O)c4c3[C@@]1(CCN2CC1CC1)[C@H]5O4
Papp A→B at 120 min, 5 μM, ×10⁻⁶ cm/s: 0.2

molecule: CN(C)C(=O)C(CCN1CCC(O)(c2ccc(Cl)cc2)CC1)(c1ccccc1)c1ccccc1 [Loperamide, loperamide]
Papp A→B at 120 min, 5 μM, ×10⁻⁶ cm/s: 1.2

molecule: CC(C)[C@@H](CN1CC[C@@](C)(c2cccc(O)c2)[C@@H](C)C1)NC(=O)[C@H]1Cc2ccc(O)cc2CN1
Papp A→B at 120 min, 5 μM, ×10⁻⁶ cm/s: 0.5

Could you now consider this next molecule?
Log: P-gp (human MDR1) (Homo sapiens), molecule O=C1CC[C@@]2(O)[C@H]3Cc4ccc(O)c5c4[C@@]2(CCN3CC2CC2)[C@H]1O5 [Naltrexone, naltrexone] , Papp A→B at 120 min, 5 μM = 31
